# measurement-target: Recombinant human HSD17B13 enzyme (Homo sapiens (Human), UniProt Q7Z5P4)
# Sequence (Q7Z5P4 20-300): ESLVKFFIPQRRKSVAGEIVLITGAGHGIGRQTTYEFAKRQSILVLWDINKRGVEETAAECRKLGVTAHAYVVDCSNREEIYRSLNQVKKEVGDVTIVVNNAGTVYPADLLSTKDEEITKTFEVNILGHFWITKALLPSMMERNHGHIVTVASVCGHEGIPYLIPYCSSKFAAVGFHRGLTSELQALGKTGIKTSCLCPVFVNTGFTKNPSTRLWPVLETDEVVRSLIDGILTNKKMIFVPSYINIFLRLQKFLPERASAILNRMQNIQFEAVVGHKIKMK
# assay-text: HSD17b13 NAD(P)H-Glo Biochemical Assay
# condition-set: 50 uM estradiol, 1 mM NAD+; read-out: HSD17β13 IC50
pIC50: −log10 of the molar value.
endpoint-name: pIC50

> print(dat)
                                   compound  readout.value
1  CS(=O)(=O)Nc1ccc(-c2ccc3c(cnn3-c3ccc(F)c(O)c3)c2)cn1 [Compound 11.02]   4.52 to 6.00
2  Cc1cc(O)ccc1-c1ccc2c(cnn2-c2ccc(F)c(O)c2)c1 [Compound 5.19]   6.00 to 7.00
3  COc1ccc(-c2ccc3c(cnn3-c3ccc(F)c(O)c3)c2)cc1Cl [Compound 2]   6.00 to 7.00
4  CS(=O)(=O)N1CCN(c2cc3cnn(-c4cc(C(F)(F)F)cc(O)c4F)c3cn2)CC1 [Compound 19.06]   6.00 to 7.00
5  Oc1cc(-n2ncc3cc(-c4ccc(Cl)cc4)ccc32)ccc1F [Compound 4.09]   6.00 to 7.00

Reported pIC50 (Recombinant human HSD17B13 enzyme (Homo sapiens (Human), UniProt Q7Z5P4)) for entry CS(=O)(=O)N1CCN(c2cc3cnn(-c4ccc(Cl)c(O)c4F)c3cn2)CC1 [Compound 19.27] is 4.52 to 6.00

Reported pIC50 (Recombinant human HSD17B13 enzyme (Homo sapiens (Human), UniProt Q7Z5P4)) for entry Cc1nn(-c2cc(C(F)(F)F)c(F)c(O)c2F)c2cnc(N(C)C3CCOCC3)c(F)c12 [Compound 19.102] is 6.00 to 7.00

Reported pIC50 (Recombinant human HSD17B13 enzyme (Homo sapiens (Human), UniProt Q7Z5P4)) for entry Oc1cc(-n2nc(Cl)c3cc(-c4ccc(O)c(Cl)c4)ccc32)ccc1F [Compound 4.14] is 6.00 to 7.00

Reported pIC50 (Recombinant human HSD17B13 enzyme (Homo sapiens (Human), UniProt Q7Z5P4)) for entry N#Cc1nn(-c2ccc(F)c(O)c2)c2ccc(-c3ccc(O)c(Cl)c3)cc12 [Compound 4.15] is 6.00 to 7.00

Reported pIC50 (Recombinant human HSD17B13 enzyme (Homo sapiens (Human), UniProt Q7Z5P4)) for entry CNS(=O)(=O)C1CN(c2ccc3c(cnn3-c3cc(O)c(F)c(F)c3)c2)C1 [Compound 21.35] is 4.52 to 6.00

Reported pIC50 (Recombinant human HSD17B13 enzyme (Homo sapiens (Human), UniProt Q7Z5P4)) for entry Cc1cc(-c2ccc3c(cnn3-c3ccc(F)c(O)c3)c2)ccc1O [Compound 5.02] is 6.00 to 7.00

----------
Recorded IC50, one value per entry.
# measurement-target: Recombinant human HSD17B13 enzyme (Homo sapiens (Human))
# assay-text: HSD17b13 NAD(P)H-Glo Biochemical Assay
# condition-set: 50 uM estradiol, 1 mM NAD+; read-out: HSD17β13 IC50
# Procedure: Recombinant human HSD17B13 enzyme. Substrate: estradiol (Sigma β-Estradiol E8875), 100 mM in DMSO. […] Assay buffer final concentration: 20 mM Tris pH7.4 with 0.002% Tween-20 and 0.02% BSA. […] Enzymatic activity detected by NAD(P)H-Glo™ Detection System (Promega G9062). […] HSD17b13 enzyme was diluted in 1× assay buffer to the desired enzyme concentration based on the specific activity of the enzyme lot. […] After incubating for 1 hour at RT, luminescence was measured.

Reported IC50 (Recombinant human HSD17B13 enzyme (Homo sapiens (Human))) for entry `CC(C)S(=O)(=O)N1CCN(c2cc3cnn(-c4cc(O)c(F)c(F)c4)c3cc2Cl)CC1` is 0.1 to 1 µM

Reported IC50 (Recombinant human HSD17B13 enzyme (Homo sapiens (Human))) for entry `CS(=O)(=O)N1CCN(c2cc3cnn(-c4ncc(Cl)c(O)c4F)c3cn2)CC1` is 1 to 30 µM

Reported IC50 (Recombinant human HSD17B13 enzyme (Homo sapiens (Human))) for entry `CC(=O)c1cc(-n2nc(C)c3cc(N4CCOCC45CC5)ncc32)cc(O)c1F` is 0.1 to 1 µM

Reported IC50 (Recombinant human HSD17B13 enzyme (Homo sapiens (Human))) for entry `CN(c1ccc2c(c1)c(C(=O)O)nn2-c1cc(C(F)(F)F)c(F)c(O)c1F)C1CCOCC1` is 1 to 30 µM

Reported IC50 (Recombinant human HSD17B13 enzyme (Homo sapiens (Human))) for entry `O=S(=O)(Cc1ccccc1)N1CCN(c2ccc3c(cnn3-c3cc(O)c(F)c(F)c3)c2)CC1` is 0.1 to 1 µM

Reported IC50 (Recombinant human HSD17B13 enzyme (Homo sapiens (Human))) for entry `Cc1ccc(-c2ccc3c(cnn3-c3cc(O)c(F)c(F)c3)c2)cn1` is 0.1 to 1 µM
